Literature roundup of Monoglyceride lipase (Mus musculus, UniProt O35678) data, read-out IC50.

Lookup: Supply reported IC50 belonging to this molecule: `O=C(OC(C(F)(F)F)C(F)(F)F)N1CCC2(CCN(Cc3cncnc3)C2)CC1`
Found: 100 to 1000 nM

Lookup: Supply reported IC50 belonging to this molecule: `Cc1cccc(CN2CC3(CCN(C(=O)OC(C(F)(F)F)C(F)(F)F)CC3)C2)c1`
Found: < 100 nM

Lookup: Supply reported IC50 belonging to this molecule: `Cc1c(C(=O)N2CCCC23CCN(C(=O)OC(C(F)(F)F)C(F)(F)F)CC3)sc2ccccc12`
Found: < 100 nM

Lookup: Supply reported IC50 belonging to this molecule: `CC(=O)N(C)c1cnn(C(=O)N2CC3(CCN(Cc4cccc(Oc5ccccc5)c4)CC3)C2)c1`
Found: 1000 to 10000 nM

Lookup: Supply reported IC50 belonging to this molecule: CC(=O)N(C)c1cnn(C(=O)N2CCC3(CCN(Cc4cc(Cl)ccc4Cl)C3)C2)c1 (racemic)
Found: 100 to 1000 nM

Lookup: Supply reported IC50 belonging to this molecule: `CC(=O)N1CCN(c2cccc(C(F)(F)F)c2CN2CC3(CCN(C(=O)OC(C(F)(F)F)C(F)(F)F)CC3)C2)CC1`
Found: < 100 nM

Lookup: Supply reported IC50 belonging to this molecule: `O=C(OC(C(F)(F)F)C(F)(F)F)N1CCC2(CCCN2C(=O)c2cc3ccc(Cl)cc3s2)CC1`
Found: < 100 nM

Lookup: Supply reported IC50 belonging to this molecule: `O=C(OC(C(F)(F)F)C(F)(F)F)N1CCC2(CCCN2Cc2cc3cc(Cl)ccc3[nH]2)CC1`
Found: < 100 nM

Lookup: Supply reported IC50 belonging to this molecule: `O=C(OC(C(F)(F)F)C(F)(F)F)N1CCC2(CC1)CN(Cc1c(Cl)cccc1N1CCCC1)C2`
Found: < 100 nM

Lookup: Supply reported IC50 belonging to this molecule: `CS(=O)(=O)N1CCCC12CCN(c1cc(Cl)ccc1CN1CCN(C(=O)OC(C(F)(F)F)C(F)(F)F)CC1)CC2`
Found: 100 to 1000 nM

Lookup: Supply reported IC50 belonging to this molecule: `CC(=O)N(C)c1cnn(C(=O)N2CCN(Cc3ccc(C(F)(F)F)cc3N3CCCC3)CC2)c1`
Found: ≤ 100 nM

Lookup: Supply reported IC50 belonging to this molecule: CC(=O)N(C)c1cnn(C(=O)N2CC3CN(Cc4cccc(Oc5ccc(Cl)cc5)c4)CC3C2)c1 (stereo not drawn)
Found: ≤ 100 nM

Lookup: Supply reported IC50 belonging to this molecule: CS(=O)(=O)N1CC2CN(c3cc(C(F)(F)F)ccc3CN3CCN(C(=O)OC(C(F)(F)F)C(F)(F)F)CC3)CC2C1 (stereo not drawn)
Found: < 100 nM

Lookup: Supply reported IC50 belonging to this molecule: `CC(=O)N(C)c1cnn(C(=O)N2CCN(Cc3cccc(N4CCCC4)c3)CC2)c1`
Found: ≤ 100 nM

Lookup: Supply reported IC50 belonging to this molecule: `COc1ccc(-c2cc(CN3CCCC34CCN(C(=O)OC(C(F)(F)F)C(F)(F)F)CC4)no2)cc1`
Found: < 100 nM
